assay: Antiviral activity was tested in cells acutely infected with HIV-1 RT (reverse transcriptase)
READOUT NAME: IC50 (µM)

A = CN1N=C(N)c2cn([C@H]3CC[C@@H](CO)O3)c3ncnc1c23
B = CN1N=C(N)c2cn(C3C=C[C@@H](CO)O3)c3ncnc1c23 (stereo not given in full)
Pick the one with the larger IC50: A vs B When you have decided, please share the label of that item.
B
(B: 100 µM, A: 21 µM)

----------
assay: Antiviral activity was tested in cells acutely infected with HIV-1 Reverse transcriptase
pIC50: −log10 of the molar value.
READOUT NAME: pIC50

Give the reported pIC50 for this compound. CN1N=C(N)c2cn(C3O[C@H](CO)[C@H]4O[C@H]34)c3ncnc1c23 (stereo partly specified)
< 4.00

----------
experiment: Antiviral activity was tested in cells acutely infected with HIV-1 RT (reverse transcriptase)
# Lookup of reported IC50 keyed by entry

# annotated cases, reported IC50 shown
{"columns": ["COMPOUND", "IC50"],
 "data": [
  ["C[C@H]1OC(n2cc3c4c(ncnc42)N(C)N=C3N)[C@H](O)[C@@H]1O (stereo partly drawn)", "> 100 µM"],
  ["CN1N=C(N)c2cn(C3C[C@@H](O)[C@@H](CO)O3)c3ncnc1c23 (stereo partly drawn)", "> 100 µM"]
]}

Give the reported IC50 for this compound. CN1N=C(N)c2cn([C@@H]3O[C@H](CO)C[C@H]3O)c3ncnc1c23
> 100 µM

Source of measurements: BindingDB's records for doi:10.1021/jm990205m
